system: cabbage butterfly; experiment: Cabbage butterfly test (sprayed cabbage seedlings, II. stage larvae); format: in vivo; settings: Pieris brassicae; 50 EC composition, concentration 0.1%; read-out: Killing rate of larvae
Listed below: mortality at 0.1 % values for each entry.
property label: mortality at 0.1 % (%)

INSERT INTO assay_data (molecule, experimental_target, unit_label, recorded_result) VALUES
  ('CCCOc1ccc2c(c1OC)OC(C)(C)C=C2', 'cabbage butterfly', '%', 100),
  ('CCOc1cc(C)c2c(c1)OC(C)(C)C=C2', 'cabbage butterfly', '%', 81),
  ('COc1cc(OC(C)C)cc2c1C=CC(C)(C)O2', 'cabbage butterfly', '%', 87),
  ('CCC(C)Oc1cc(C)c2c(c1)OC(C)(C)C=C2 (centres unmarked)', 'cabbage butterfly', '%', 11),
  ('Cc1cc(OC2CCCC2)cc2c1C=CC(C)(C)O2', 'cabbage butterfly', '%', 100),
  ('COc1c(OCC(C)C)ccc2c1OC(C)(C)C=C2', 'cabbage butterfly', '%', 93),
  ('COc1c(OC(C)C)ccc2c1OC(C)(C)C=C2', 'cabbage butterfly', '%', 64),
  ('CCC(C)Oc1ccc2c(c1OC)OC(C)(C)C=C2 (centres unmarked)', 'cabbage butterfly', '%', 100),
  ('CCOc1ccc2c(c1OC)OC(C)(C)C=C2', 'cabbage butterfly', '%', 76),
  ('C#CCOc1cc(C)c2c(c1)OC(C)(C)C=C2', 'cabbage butterfly', '%', 83),
  ('CCCOc1cc(OC)c2c(c1)OC(C)(C)C=C2', 'cabbage butterfly', '%', 88),
  ('COc1cc(OCC(C)C)cc2c1C=CC(C)(C)O2', 'cabbage butterfly', '%', 100),
  ('Cc1cc(OCC(C)C)cc2c1C=CC(C)(C)O2', 'cabbage butterfly', '%', 100),
  ('CCC(C)Oc1cc(OC)c2c(c1)OC(C)(C)C=C2 (centres unmarked)', 'cabbage butterfly', '%', 100);

----------
tested on: Caenorhabditis elegans adult nematodes; assay: Nematocidal effect on Caenorhabditis elegans adult nematodes; assay type: in vivo; details: 400 μg/ml; control normal
property label: Size of descendant population

INSERT INTO assay_data (compound, property_label, recorded_result) VALUES
  ('COc1cc2c(cc1OC)OC(C)(C)C=C2 [Compound P2, reference compound]', 'Size of descendant population', 'no descendants'),
  ('CCC(C)Oc1ccc2c(c1OC)OC(C)(C)C=C2 (centres unmarked) [Compound 89]', 'Size of descendant population', 'reduced'),
  ('CCOc1ccc2c(c1OC)OC(C)(C)C=C2 [Compound 87]', 'Size of descendant population', 'no descendants'),
  ('COc1ccc2c(c1)OC(C)(C)C=C2 [Compound P1, reference compound]', 'Size of descendant population', 'no descendants'),
  ('COc1c(OC(C)C)ccc2c1OC(C)(C)C=C2 [Compound 90]', 'Size of descendant population', 'reduced'),
  ('C=CCOc1cc2c(cc1OCC=C)OC(C)(C)C=C2 [Compound 58]', 'Size of descendant population', 'no descendants'),
  ('C#CCOc1cc(C)c2c(c1)OC(C)(C)C=C2 [Compound 30]', 'Size of descendant population', 'no descendants'),
  ('CCOc1cc2c(cc1OC)C=CC(C)(C)O2 [Compound P3, reference compound]', 'Size of descendant population', 'no descendants');
